Listing: log10(IC50) of selected compounds
study system: Gonadotropin-releasing hormone receptor (Rattus norvegicus)
Sequence (P30969 whole entry): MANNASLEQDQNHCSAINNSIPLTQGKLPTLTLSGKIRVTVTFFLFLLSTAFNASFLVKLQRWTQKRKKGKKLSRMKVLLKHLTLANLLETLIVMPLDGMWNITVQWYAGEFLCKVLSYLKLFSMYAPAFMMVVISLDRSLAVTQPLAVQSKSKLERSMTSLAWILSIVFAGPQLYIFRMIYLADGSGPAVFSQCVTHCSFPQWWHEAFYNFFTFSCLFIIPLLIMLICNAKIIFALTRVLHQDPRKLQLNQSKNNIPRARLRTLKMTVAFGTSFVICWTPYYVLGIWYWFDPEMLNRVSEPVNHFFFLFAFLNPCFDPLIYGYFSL
Recorded IC50 (log10, nM)

smiles=Cc1cc(C)cc(-c2[nH]c3ccccc3c2CCNCCCCc2ccc(=O)[nH]c2)c1 measured_number=1.76
smiles=Cc1cc(C)cc(-c2[nH]c3ccccc3c2CCNCc2cccnc2)c1 measured_number=3.65
smiles=Cc1cc(C)cc(-c2[nH]c3ccccc3c2CCNCc2ccncc2)c1 measured_number=3.95
smiles=Cc1cc(C)cc(-c2[nH]c3ccccc3c2CCNCCc2ccccn2)c1 measured_number=3.34
smiles=Cc1cc(C)cc(-c2[nH]c3ccccc3c2CCNCCCCc2cnc3ccccc3c2)c1 measured_number=1.56
smiles=Cc1cc(C)cc(-c2[nH]c3ccccc3c2CCNCCCCCc2cccnc2)c1 measured_number=1.70
smiles=Cc1cc(C)cc(-c2[nH]c3ccccc3c2CCNCCCCc2ccc(NS(C)(=O)=O)cc2)c1 measured_number=0.85
smiles=Cc1cc(C)cc(-c2[nH]c3ccccc3c2CCNCCCCc2ccc3c(n2)NCCC3)c1 measured_number=3.10

Here is another compound to look at.
Jot down log10(IC50) (Gonadotropin-releasing hormone receptor (Rattus norvegicus)) of "Cc1cc(C)cc(-c2[nH]c3ccccc3c2CCNCCCCc2cnc[nH]2)c1" .
2.65

Numbers sourced from ChEMBL document CHEMBL1134029.
